target: HEK293 transfected with human DDR2 (Homo sapiens); construct: expressed in transfected cells; host or cells: HEK293 (PLT460F_(DDR2)-P7-1); test: Phospho-DDR2 cellular assay (collagen II induced DDR2 phosphorylation, ELISA); format: cell-based; conditions: cellular phospho-DDR2; read-out: IC50 [p-DDR2]
quantity.measured: IC50 (nM)

Illustrative cases are given below, each with its answer.
molecule	subject.of.test	IC50 (nM)
CNC(=O)c1cc(Oc2ccc(C(C)NC(=O)Nc3ccc(C)c(Cl)c3)cc2)ccn1 (stereo not shown)	HEK293 transfected with human DDR2 (Homo sapiens)	1750
CNC(=O)c1cc(Oc2ccc(CNC(=O)Nc3cc(C(F)(F)F)ccc3-n3ccnc3)cc2C)ccn1	HEK293 transfected with human DDR2 (Homo sapiens)	2900
CNC(=O)c1cc(Oc2ccc(CNC(=O)Nc3cc(C)ccn3)cc2)ccn1	HEK293 transfected with human DDR2 (Homo sapiens)	380
CNC(=O)c1cc(Oc2ccc(CNC(=O)Nc3cc(C(F)(F)F)ccc3-n3ccnn3)cc2C)ccn1	HEK293 transfected with human DDR2 (Homo sapiens)	19
CNC(=O)c1cc(Oc2ccc(CNC(=O)Nc3ccc(NC(C)=O)c(C(F)(F)F)c3)cc2)ccn1	HEK293 transfected with human DDR2 (Homo sapiens)	710
CNC(=O)c1cc(Oc2ccc(CNC(=O)Nc3cccc(S(C)(=O)=O)c3)cc2C)ccn1	HEK293 transfected with human DDR2 (Homo sapiens)	1250
CNC(=O)Cc1ccc(C(F)(F)F)cc1NC(=O)NCc1ccc(Oc2ccnc(C(=O)NC)c2)c(C)c1	HEK293 transfected with human DDR2 (Homo sapiens)	455
CNC(=O)c1cc(Oc2ccc(CNC(=O)Nc3cc(Cl)c(C)cc3OCCNC(C)C)cc2)ccn1	HEK293 transfected with human DDR2 (Homo sapiens)	35
CNCCOc1ccccc1NC(=O)NCc1ccc(Oc2ccnc(C(=O)NC)c2)cc1	HEK293 transfected with human DDR2 (Homo sapiens)	1900
CNC(=O)c1cc(Oc2ccc(CNC(=O)Nc3cc(C(F)(F)F)ccc3N3CCNCC3)cc2)ccn1	HEK293 transfected with human DDR2 (Homo sapiens)	135

a = CNC(=O)c1cc(Oc2ccc(CNC(=O)Nc3cc(C)c(Cl)cc3OCCN3CCOCC3)cc2)ccn1
b = CNC(=O)c1cc(Oc2ccc(CNC(=O)Nc3c(OC)cc(Cl)c(C)c3Cl)cc2)ccn1
c = CNC(=O)c1cc(Oc2ccc(CNC(=O)Nc3cc(C(F)(F)F)ccc3O)cc2C)ccn1
d = CNC(=O)c1cc(Oc2ccc(CNC(=O)Nc3cc(C)c(Cl)cc3OC)cc2)ccn1
e = CNC(=O)c1cc(Oc2ccc(CNC(=O)Nc3cc(C(F)(F)F)ccc3CC(N)=O)cc2)ccn1
Req: Hello, I need these entries ordered by IC50, highest reading first. Thanks! Arrange the labels as the request states and list them.
Resp: b, e, a, c, d

A = CNC(=O)c1cc(Oc2ccc(CNC(=O)Nc3cc(Cl)c(C)cc3OCC3CCCN3)cc2)ccn1 (stereo not shown)
B = CNCCOc1ccc(S(=O)(=O)C(F)(F)F)cc1NC(=O)NCc1ccc(Oc2ccnc(C(=O)NC)c2)c(C)c1
C = CNC(=O)c1cc(Oc2ccc(CNC(=O)Nc3cccc(S(C)(=O)=O)c3)cc2)ccn1
Req: Please give the order of these molecules when sorted by IC50, largest value leading. Give me the labels in the order the question wants.
Resp: C, B, A

1 = CNC(=O)c1cc(Oc2ccc(CNC(=O)Nc3cc(C(F)(F)F)ccc3-n3cncn3)cc2F)ccn1
2 = CNC(=O)c1cc(Oc2ccc(CNC(=O)Nc3cc(C)c(Cl)cc3OCCN(C)C)cc2C)ccn1
Req: Which numeric IC50 is bigger, that of 1 or that of 2 ? Refer to your chosen item by its label in the answer.
Resp: 1
(1: 27 nM, 2: 18 nM)

----------
Target: His-tagged human recombinant DDR-2 kinase domain (His-TEV-DDR2 467-855 aa) (Homo sapiens, UniProt Q16832)
Construct: His-TEV-DDR2 467-855 aa
Sequence (Q16832 467-855): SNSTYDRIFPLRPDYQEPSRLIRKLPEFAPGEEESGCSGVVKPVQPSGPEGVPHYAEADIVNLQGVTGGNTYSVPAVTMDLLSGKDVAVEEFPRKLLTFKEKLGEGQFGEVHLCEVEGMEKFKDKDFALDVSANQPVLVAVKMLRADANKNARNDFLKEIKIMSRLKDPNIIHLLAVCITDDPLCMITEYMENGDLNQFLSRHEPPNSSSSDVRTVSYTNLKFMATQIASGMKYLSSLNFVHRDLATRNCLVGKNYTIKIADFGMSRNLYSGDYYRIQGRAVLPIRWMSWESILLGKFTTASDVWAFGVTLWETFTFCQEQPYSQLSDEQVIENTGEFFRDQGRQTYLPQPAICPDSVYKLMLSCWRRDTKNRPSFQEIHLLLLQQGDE
Assay: Autophosphorylation assay for biochemical activity testing of DDR2 (HTRF)
Details: biochemical DDR2 autophosphorylation
pIC50: −log10 of the molar value.
quantity.measured: pIC50

compound	pIC50
CC(=O)Nc1cc(Oc2ccc(CNC(=O)Nc3cc(C)c(Cl)cc3OCCN(C)C)cc2C)ccn1	8.22
O=C(NCc1ccc(Oc2ccncc2)cc1)Nc1ccc(Cl)cc1	5.23
CNC(=O)c1cc(Oc2ccc(CNC(=O)Nc3cc(Cl)c(C)cc3OC3CCNCC3)cc2)ccn1	7.46
CNC(=O)c1cc(Oc2ccc(CNC(=O)Nc3cccnc3OC)cc2)ccn1	5.80
CNC(=O)c1cc(Oc2ccc(CNC(=O)Nc3cc(C)ccc3OC)cc2)ccn1	7.16

I = CNCCOc1cc(Cl)c(C(F)(F)F)cc1NC(=O)NCc1ccc(Oc2ccnc(C(=O)NC)c2)c(C)c1
II = CNC(=O)c1cc(Oc2ccc(CNC(=O)Nc3ncc(C(F)(F)F)cc3Cl)cc2)ccn1
Req: Hey, which is lower on measured pIC50, I or II ? Your choice should be expressed through its label.
Resp: II
(II: 5.18, I: 7.39)

I = O=C(NCc1ccc(Oc2ccncc2)cc1)Nc1cc(C(F)(F)F)ccc1Cl
II = CNC(=O)c1cc(Oc2ccc(CNC(=O)Nc3cc(C)c(Cl)cc3OCCCCN(C)C)cc2)ccn1
III = Cc1cc(C)cc(NC(=O)NCc2ccc(Oc3ccncc3)cc2)c1
IV = CNC(=O)c1cc(Oc2ccc(CNC(=O)Nc3cc(C)c(Cl)cc3OCCN3CCOCC3)cc2)ccn1
V = COc1cc(Cl)c(C)cc1NC(=O)NCc1ccc(Oc2ccnc(C(=O)NCCN)c2)cc1
Req: Order by pIC50, ascending. Answer by naming the labels in the order asked.
Resp: V, III, IV, II, I
(V: 5.51, III: 5.74, IV: 6.54, II: 6.80, I: 7.38)

P = CNC(=O)c1cc(Oc2ccc(CNC(=O)Nc3cc(Cl)c(C)cc3OCC3CCCN3)cc2)ccn1 (centres unmarked)
Q = CNC(=O)c1cc(Oc2ccc(CNC(=O)Nc3cc(C(F)(F)F)ccc3OCCN)cc2)ccn1
Req: When the recorded pIC50 values are compared, which is smaller: that of P or that of Q ? Your answer should be the label of the entry you select.
Resp: P
(P: 7.23, Q: 7.47)

P = CNC(=O)c1cc(Oc2ccc(CNC(=O)Nc3cc(C)c(Cl)cc3OCCCN(C)C)cc2)ccn1
Q = O=C(NCc1ccc(Oc2ccncc2)cc1)Nc1ccc(C(F)(F)F)cc1Cl
R = O=C(NCc1ccc(Oc2ccncc2)cc1)Nc1cccc(OC(F)(F)F)c1
Req: Sort ascending by pIC50. Quick reminder: the answer is the labels in the order asked.
Resp: Q, P, R

----------
molecular target: His-tagged human recombinant DDR-2 kinase domain (His-TEV-DDR2 467-855 aa) (Homo sapiens); construct: His-TEV-DDR2 467-855 aa; assay: Autophosphorylation assay for biochemical activity testing of DDR2 (HTRF); settings: biochemical DDR2 autophosphorylation
quantity.measured: IC50 (nM)

Example entries and their recorded answers appear below.
CNC(=O)c1cc(Oc2ccc(CNC(=O)Nc3cc(C(F)(F)F)c(Cl)cc3OCC(=O)OC(C)C)cc2)ccn1 24
O=C(NCc1ccc(Oc2ccncc2)cc1)Nc1ccc(F)cc1 3400
Cc1ccc(NC(=O)NCc2ccc(Oc3ccncc3)cc2)cc1 4100
COc1ccc(OC)c(NC(=O)NCc2ccc(Oc3ccncc3)cc2)c1 440
CNC(=O)c1cc(Oc2ccc(CNC(=O)Nc3ccc(C)cn3)cc2)ccn1 2000

I = Cc1cc(NC(=O)NCc2ccc(Oc3ccncc3)c(C)c2)c(OCCN(C)C)cc1Cl
II = Cc1ccc(NC(=O)NCc2ccc(Oc3ccncc3)cc2)cc1C
III = CSc1cccc(NC(=O)NCc2ccc(Oc3ccncc3)cc2)c1
IV = CCN(CC)CCOc1ccc(C(F)(F)F)cc1NC(=O)NCc1ccc(Oc2ccnc(C(=O)NC)c2)cc1
Req: Put the entries in order of IC50, starting with the largest number. Write the labels out in the order the request specifies.
Resp: III, II, I, IV

A = CNC(=O)c1cc(Oc2ccc(CNC(=O)Nc3cc(C)c(Cl)cc3OCCCCN(C)C)cc2C)ccn1
B = CCN(CC)CCOc1cc(Cl)c(C(F)(F)F)cc1NC(=O)NCc1ccc(Oc2ccnc(C(=O)NC)c2)cc1
C = CC(C)c1ccc(NC(=O)NCc2ccc(Oc3ccncc3)cc2)cc1
D = Cc1cc(NC(=O)NCc2ccc(Oc3cc(N)ncn3)c(C)c2)c(OCCN(C)C)cc1Cl
Req: Rank order required: IC50, descending. Answer by writing out the labels in the requested order.
Resp: C, D, A, B
(C: 9600 nM, D: 440 nM, A: 210 nM, B: 125 nM)

1 = CNCCOc1cc(Cl)c(C)cc1NC(=O)NCc1ccc(Oc2ccnc(C(=O)NC)c2)cc1
2 = COc1ccccc1NC(=O)NCc1ccc(Oc2ccncc2)cc1
3 = CC(=O)c1ccc(NC(=O)NCc2ccc(Oc3ccncc3)cc2)cc1
Req: # ascending order, key=IC50 Answer by naming the labels in the order asked.
Resp: 1, 2, 3

a = CNC(=O)c1cc(Oc2ccc(CNC(=O)Nc3cc(C)c(Cl)cc3OC)cc2F)ccn1
b = O=C(Nc1ccc(Cl)c(C(F)(F)F)c1)NC1(c2ccc(Oc3ccncc3)cc2)CC1
c = CNC(=O)c1cc(Oc2ccc(CNC(=O)Nc3cc(C(F)(F)F)ccc3OCCN(C)C)cc2)ccn1
Req: Task for the reader: rank each entry by its IC50, from the minimum upward. Rank them, then answer with their labels in that order.
Resp: c, a, b

1 = CNCCOc1ccccc1NC(=O)NCc1ccc(Oc2ccnc(C(=O)NC)c2)cc1
2 = CNC(=O)c1cc(Oc2ccc(CNC(=O)Nc3cc(C(F)(F)F)ccc3OCCOC)cc2C)ccn1
Req: Short answer wanted: higher IC50, 1 or 2 ? Bench note: the answer is the label of the chosen record.
Resp: 1
(1: 2800 nM, 2: 130 nM)

1 = CNC(=O)c1cc(Oc2ccc(CNC(=O)Nc3cc(C)c(Cl)cc3OC)cc2)ccn1
2 = CNC(=O)c1cc(Oc2ccc(CNC(=O)Nc3cc(OC)c([N+](=O)[O-])cc3OC)cc2)ccn1
3 = CNC(=O)c1cc(Oc2ccc(CNC(=O)Nc3cc(OC)c(Cl)cc3OC)cc2)ccn1
4 = O=C(NCc1ccc(Oc2ccncc2)cc1)Nc1ccc(Cl)c(Cl)c1
5 = CNC(=O)c1cc(Oc2ccc(CNC(=O)Nc3cc(C)c(Cl)cc3OCCN3CCCC3)cc2)ccn1
Req: Put the items in sequence by IC50, from largest down. // ordering of labels required in reply
Resp: 4, 3, 5, 2, 1
(4: 2100 nM, 3: 760 nM, 5: 410 nM, 2: 230 nM, 1: 100 nM)

A = CNC(=O)c1cc(Oc2ccc(CNC(=O)Nc3cc(C(F)(F)F)ccc3OCCN3CCCC3)cc2)ccn1
B = CNC(=O)c1cc(Oc2ccc(CNC(=O)Nc3cc(C(F)(F)F)ccc3OC)cc2)ccn1
Req: Among A and B , which shows a numerically higher IC50 result? # reply format: chosen label
Resp: A
